The reported measurements were obtained from the supplement of paper PMC8671470.

system: LAMA-84; experiment: cell viability (% survival relative to DMSO control, bortezomib = 0%); higher = less cytotoxic; details: 100 nM; 72 h
readout.type: cell viability (%)
# output: bare number, implied unit %

Prompt line: Under LAMA-84, report cell viability for `Cl.NC1=CCCN1Cc1nc(O)nc(O)c1Cl`
Response line: 98.7

Prompt line: Specify cell viability for CCCCCCCNC=O [N-Heptyl-Formamide] , system LAMA-84.
Response line: 104

Prompt line: Please tell me the measured cell viability for NS(=O)(=O)c1ccc(NC(=O)Cc2ccccc2)cc1 [4-(2-Phenylacetamido)Benzenesulfonamide] ; system: LAMA-84.
Response line: 110

Prompt line: Give cell viability; test system LAMA-84; compound CC(=O)N1CCN(c2ccc(OC[C@@H]3CO[C@@](Cn4ccnc4)(c4ccc(Cl)cc4Cl)O3)cc2)CC1 (racemic)
Response line: 96.3

Prompt line: Write cell viability of `CCCCCCCCCCCCC/C=C/[C@@H](O)[C@H](CO)N(C)C` ; system used: LAMA-84
Response line: 106

Prompt line: Send back LAMA-84 cell viability of `CC(C)(CS(=O)(=O)[O-])NC(=O)CC[N+](C)(C)CCO` only.
Response line: 100

Prompt line: Output reported cell viability of the compound `CC(C)(O)CNc1nc(Nc2ccnc(C(F)(F)F)c2)nc(-c2cccc(C(F)(F)F)n2)n1` on LAMA-84.
Response line: 99.1

Prompt line: Please respond with reported cell viability (system LAMA-84) for `NS(=O)(=O)c1ccc(S(=O)(=O)Nc2cccc3c(Cl)c[nH]c23)cc1` .
Response line: 111

Prompt line: Report the value of cell viability obtained on LAMA-84 for `OCC(CO)N[C@H]1C[C@](O)(CO)[C@@H](O)[C@H](O)[C@H]1O` .
Response line: 99.6

Prompt line: // output cell viability; input `COc1cc(/C=C/c2ccc(OC)cc2OC)cc(OC)c1` ; system LAMA-84
Response line: 99.4

Prompt line: Print LAMA-84 cell viability for `Clc1cc(Cl)c(OCC#CI)cc1Cl` .
Response line: 99.9

Prompt line: Under LAMA-84, report cell viability for `CN1CC(=O)N2[C@H](c3ccc4c(c3)OCO4)c3[nH]c4ccccc4c3C[C@@H]2C1=O`
Response line: 96.8

Prompt line: Given `Fc1ccc(CNc2ncnc3ccc(F)cc23)cc1` , report its cell viability on LAMA-84.
Response line: 93.5

Prompt line: Check LAMA-84 data and give cell viability for `Oc1ncc(F)c(O)n1` .
Response line: 99.8

Prompt line: Look up LAMA-84 data: cell viability of `C=C1NC(=O)c2cc(CN(C)c3ccc(C(=O)N[C@@H](CCC(=O)O)C(=O)O)s3)ccc2N1` , then report it.
Response line: 27.7

Prompt line: Give cell viability only, for `O=C1N[C@@H]2[C@@H](O)[C@@H](O)[C@H](O)[C@@H](CO)N2C1=O` , using LAMA-84 data.
Response line: 114

Prompt line: State measured cell viability of the compound `CN(C)C(=O)n1nnnc1Cc1ccc(-c2ccccc2)cc1` with LAMA-84.
Response line: 103

###

test system: HL-60; experiment: area under dose-response curve (viability, 1 nM-10 uM) (fraction (0-1)); higher = more sensitive; conditions: 72 h; co-treatment: pictilisib 100 nM
Exercise: for every item that follows, state its recorded area under dose-response curve.

Prompt line: Given `O[C@H]1[C@H](O)[C@@H](O)CN2CC[C@H](O)[C@H]12` , respond with its area under dose-response curve.
Response line: < 0.0301

Prompt line: Give the value of area under dose-response curve reported for the following: `CC(=O)N[C@@H](CS)C(=O)O`
Response line: < 0.0301

Prompt line: // Input: NC(CCC(=O)NC(CSCc1ccc(Br)cc1)C(=O)NCC(=O)OC1CCCC1)C(=O)OC1CCCC1 (centres undefined) . Output its area under dose-response curve only.
Response line: 0.0772

Prompt line: Return area under dose-response curve (reported value) for this compound: `CN1CC(=O)N2[C@H](c3ccc4c(c3)OCO4)c3[nH]c4ccccc4c3C[C@@H]2C1=O`
Response line: < 0.0301

Prompt line: Determine its reported area under dose-response curve: CCCCCCCNC=O [N-Heptyl-Formamide]
Response line: < 0.0301

Prompt line: Name the recorded area under dose-response curve of the item `C#CCN[C@@H]1CCc2ccccc21` in your answer.
Response line: < 0.0301

Prompt line: Query area under dose-response curve for `OC[C@H]1N[C@@H](c2c[nH]c3c(O)ncnc23)[C@H](O)[C@@H]1O`
Response line: < 0.0301

Prompt line: Provide area under dose-response curve value for the following compound: `Fc1ccc(CNc2ncnc3ccc(F)cc23)cc1`
Response line: 0.0324

Prompt line: Supply area under dose-response curve value. Item: `Oc1ncc(F)c(O)n1`
Response line: < 0.0301
